Entry source: PubChem BioAssay (NCATS)

Experiment: qHTS to identify inhibitors of the type 1 interferon - major histocompatibility complex class I in skeletal muscle: primary screen against the NCATS LOPAC collection (AID 1347405);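 note: human myoblasts with HiBiT tag on endogenous HLA-B stimulated by IFN-beta; lytic HiBiT luminescence reporting HLA-B protein level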
Conditions: iHSKM muscle cells, IFN-b-induced MHC-I HiBiT luminescence, 24 h; series mostly up to 45.9 µM
Description: Assay Submitter (PI): Travis B. Kinder Ph.D. & James Inglese Ph.D. Assay Development and Screening Technology Laboratory (ADST) National Center for Advancing Translational Sciences (NCATS), Rockville, MD National Institute of Health (NIH), Bethesda, Maryland […]
Records with an inconclusive call do not appear. Activity calls are given as the source filed them. Calls come from the whole dose curve; as a rule, active = well fitted inhibition curve with a large enough effect; inconclusive = small, poorly fitted or top-dose-only effect; inactive = flat fitted curve, though single readings scatter.
Labels: active, inactive

| compound | class |
| --- | --- |
| CCCN(CCC)CCc1ccc(O)c(O)c1 | inactive |
| O=[N+]([O-])/C=C/c1ccc2c(c1)OCO2 | active |
| C=CCN1CCC23c4c5ccc(O)c4O[C@H]2C(=O)CC[C@@]3(O)C1C5 (stereo partly drawn) | inactive |
| O=c1ccc2[nH]cc(C3=CCNCC3)c2[nH]1 | inactive |
| CCOC(=O)c1ncn2c1[C@@H]1CCCN1C(=O)c1cc(OC)ccc1-2 | inactive |
| N#C/C(=C/c1ccc(O)c(O)c1)C(N)=S | inactive |
| CC(N)c1cccc(Cl)c1Cl (stereo not drawn) | inactive |
| CCCN1CCC[C@@H](c2cccc(O)c2)C1 | inactive |
| CCCC[N+]1(C)C2CC(OC(=O)[C@H](CO)c3ccccc3)CC1C1OC12 (stereo partly drawn) | inactive |
| CC(N)Cc1c[nH]c2ccc(OCc3cccs3)cc12 (stereo not drawn) | inactive |
| NNC(=O)c1ccc(O)cc1 | inactive |
| COc1ccc2c(c1O)-c1cccc3c1[C@@H](C2)N(C)CC3 | inactive |
| CCCN1CCc2cc(O)cc3c2[C@H]1Cc1ccc(O)c(O)c1-3 | inactive |
| C[N+](C)(C)CC#CCOC(=O)Nc1cccc(Cl)c1 | inactive |
| Cc1cc([C@@H]2CCCN2C)on1 | inactive |
| NC(=O)c1cc(N2CC2)c([N+](=O)[O-])cc1[N+](=O)[O-] | inactive |
| CN(N=O)c1ccc(O)c(O)c1 | inactive |
| COc1ccc2c(c1)C13CCCCC1C(C2)N(C)CC3 (stereo not drawn) | inactive |
